System: A549
Experiment: Antiinflammatory activity against in human A549 cells assessed as reduction in RSV-induced NF-kappaB mRNA expression at 10 uM incubated for 4 hrs by qRT-PCR analysis
Assay type: functional, cell-based
Active and inactive are the calls of the source. The rule behind the calls is not given here.
Respond using exactly one of the listed classes: yes (active), no (inactive)

INPUT: What outcome does the record of this test show for `CCCN(CCC)c1ccc(NC(=O)c2cc(Cl)ccc2O)c(Cl)c1` ?
OUTPUT: yes

INPUT: What outcome does the record of this test show for `O=C(Nc1ccc(NCc2cccnc2)cc1Cl)c1cc(Cl)ccc1O` ?
OUTPUT: no

INPUT: What outcome does the record of this test show for `CC(C)Nc1ccc(NC(=O)c2cc(Cl)ccc2O)c(Cl)c1` ?
OUTPUT: yes

INPUT: What outcome does the record of this test show for `O=C(Nc1ccc(NCc2ccco2)cc1Cl)c1cc(Cl)ccc1O` ?
OUTPUT: yes

INPUT: What outcome does the record of this test show for `CCCNc1ccc(NC(=O)c2cc(Cl)ccc2O)c(Cl)c1` ?
OUTPUT: yes

INPUT: What outcome does the record of this test show for `O=C(Nc1ccc(N2CCOCC2)cc1Cl)c1cc(Cl)ccc1O` ?
OUTPUT: yes

INPUT: What outcome does the record of this test show for `CC1(Nc2ccc(NC(=O)c3cc(Cl)ccc3O)c(Cl)c2)CCCCC1` ?
OUTPUT: yes

---

System: A549
Test: Cytotoxicity against human A549 cells assessed as reduction in cell viability incubated for 15 hrs by trypan blue assay
Details: a549, 15 h
Each entry below lists one item and its recorded CC50 value.
Give the quantity in µM, number only.

O=C(Nc1ccc(NCC2CCCC2)cc1Cl)c1cc(Cl)ccc1O | 141

INPUT: Write down CC50 measured for item `CC1(Nc2ccc(NC(=O)c3cc(Cl)ccc3O)c(Cl)c2)CCCCC1`
OUTPUT: 86.5

---

Test system: Respiratory syncytial virus
Assay: Antiviral activity against RSV infected in human A549 cells assessed as reduction in viral titer at 10 uM incubated for 15 hrs by immunostaining analysis
Format: functional
Each entry below lists one item and its recorded log(activity) value.
Number, no unit, nothing else.

O=C(Nc1ccc(NCc2ccccc2)cc1Cl)c1cc(Cl)ccc1O | 1.53
CC1(Nc2ccc(NC(=O)c3cc(Cl)ccc3O)c(Cl)c2)CCCCC1 | 1.82
Nc1ccc(NC(=O)c2cc(Cl)ccc2O)c(Cl)c1 | -0.01

INPUT: Write down log(activity) measured for item `O=C(Nc1ccc(NCC2CCCC2)cc1Cl)c1cc(Cl)ccc1O`
OUTPUT: 1.42

INPUT: Write down log(activity) measured for item `O=C(Nc1ccc(NCc2ccco2)cc1Cl)c1cc(Cl)ccc1O`
OUTPUT: 2.13

INPUT: Write down log(activity) measured for item `O=C(Nc1ccc(NCCCO)cc1Cl)c1cc(Cl)ccc1O`
OUTPUT: -0.16

INPUT: Write down log(activity) measured for item `O=C(Nc1ccc(NCc2cccnc2)cc1Cl)c1cc(Cl)ccc1O`
OUTPUT: 0.54

INPUT: Write down log(activity) measured for item O=C(Nc1ccc([N+](=O)[O-])cc1Cl)c1cc(Cl)ccc1O [NICLOSAMIDE]
OUTPUT: 1.47

INPUT: Write down log(activity) measured for item `O=C(Nc1ccc(NCc2ccc(F)cc2)cc1Cl)c1cc(Cl)ccc1O`
OUTPUT: 1.54

---

Test system: A549
Test: Cytotoxicity against human A549 cells assessed as reduction in cell viability incubated for 15 hrs by trypan blue assay
Conditions: a549, 15 h
property: log10 CC50 (log10 of the value in µM)
Answers are given as log10 of CC50 in µM.

// below: answered compounds
CCCC(C)(C)Nc1ccc(NC(=O)c2cc(Cl)ccc2O)c(Cl)c1 | 1.37
O=C(Nc1ccc(NCc2ccco2)cc1Cl)c1cc(Cl)ccc1O | 1.88
O=C(Nc1ccc(N2CCOCC2)cc1Cl)c1cc(Cl)ccc1O | 1.95
CCCCCCC(C)Nc1ccc(NC(=O)c2cc(Cl)ccc2O)c(Cl)c1 (centres undefined) | 1.27
O=C(Nc1ccc(NCc2ccccc2)cc1Cl)c1cc(Cl)ccc1O | 1.91

INPUT: Write down log10 CC50 measured for item `O=C(Nc1ccc(NCc2cc(C(F)(F)F)cc(C(F)(F)F)c2)cc1Cl)c1cc(Cl)ccc1O`
OUTPUT: 1.36
